molecular target: WEE1 (Homo sapiens, UniProt P30291); construct: purchased Thermo Fisher PR7373A; experiment: Selectivity versus WEE1 assay (ADP-Glo enzymatic assay); format: biochemical; conditions: ADP-Glo; 15 nM WEE1, 60 minutes at 26° C.; banded
Sequence (P30291 whole entry): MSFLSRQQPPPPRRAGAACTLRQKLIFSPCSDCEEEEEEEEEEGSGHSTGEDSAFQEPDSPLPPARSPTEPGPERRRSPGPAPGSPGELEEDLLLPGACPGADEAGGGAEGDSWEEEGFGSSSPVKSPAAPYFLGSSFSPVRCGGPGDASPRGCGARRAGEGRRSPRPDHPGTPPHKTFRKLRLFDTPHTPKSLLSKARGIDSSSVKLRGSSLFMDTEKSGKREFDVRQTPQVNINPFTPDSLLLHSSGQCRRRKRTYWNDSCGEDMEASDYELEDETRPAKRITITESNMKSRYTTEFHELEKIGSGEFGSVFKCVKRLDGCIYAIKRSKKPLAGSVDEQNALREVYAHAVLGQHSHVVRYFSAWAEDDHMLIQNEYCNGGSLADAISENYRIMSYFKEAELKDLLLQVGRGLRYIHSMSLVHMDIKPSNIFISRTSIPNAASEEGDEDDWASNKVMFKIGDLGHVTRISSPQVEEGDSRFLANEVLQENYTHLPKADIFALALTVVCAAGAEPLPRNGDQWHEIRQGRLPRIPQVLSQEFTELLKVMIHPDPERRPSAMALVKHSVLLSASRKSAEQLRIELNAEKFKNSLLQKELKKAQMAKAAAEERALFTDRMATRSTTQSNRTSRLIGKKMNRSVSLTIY
Where a name gives a salt, the structure may show the parent alone.

| COMPOUND | IC50 |
| --- | --- |
| Cc1ccc(O)c(C)c1NC(=O)c1cnc(Nc2nn(-c3ccccn3)cc2Cl)s1 [BAA-383] | > 11 µM |
| Cc1ccc(O)c(C)c1NC(=O)c1cnc(Nc2ccc(Nc3ccc(F)cc3)cn2)s1 [BAA-310] | > 11 µM |
| Cc1ccc(O)c(C)c1NC(=O)c1cnc(Nc2nn(C)c3ccccc23)s1 [BAA-126] | 1 to 11 µM |
| Cc1ccc(O)c(C)c1NC(=O)c1cnc(Nc2ccn(CC(=O)N3CCCN(C)CC3)n2)s1 [BAA-171, (hydrochloride)] | > 11 µM |

----------
target: WEE1 (Homo sapiens); construct: purchased Thermo Fisher PR7373A; test: Selectivity versus WEE1 assay (ADP-Glo enzymatic assay); format: biochemical; settings: ADP-Glo; 15 nM WEE1, 60 minutes at 26° C.; banded
Structures can show the parent of a compound that is named as a salt.
# Lookup of reported IC50 keyed by entry

| COMPOUND | IC50 |
| --- | --- |
| Cc1ccc(O)c(C)c1NC(=O)c1cnc(Nc2ccc(S(C)(=O)=O)cc2)s1 [BAA-275] | > 11 µM |
| Cc1ccc(O)c(C)c1NC(=O)c1cnc(Nc2cc(C(F)(F)F)nc(NCCC(C)(C)C)n2)s1 [BAA-322] | > 11 µM |
| Cc1c[nH]nc1Nc1ncc(C(=O)Nc2c(C)ccc(O)c2C)s1 [BAA-388] | 1 to 11 µM |
| Cc1ccc(O)c(C)c1NC(=O)c1cnc(Nc2cc(C)n(CC(=O)N3CCN(C)CC3)n2)s1 [BAA-201] | > 11 µM |
| Cc1ccc(O)c(C)c1NC(=O)c1cnc(Nc2ccn(CC(=O)N3CCC(C)(O)CC3)n2)s1 [BAA-169] | > 11 µM |
| Cc1cn(-c2cn(C)nc2C)nc1Nc1ncc(C(=O)Nc2c(C)ccc(O)c2C)s1 [BAA-392] | 1 to 11 µM |
| Cc1ccc(O)c(C)c1NC(=O)c1cnc(Nc2ccn([C@H]3CCN(C(=O)OC(C)(C)C)C3)n2)s1 [BAA-042] | > 11 µM |
| Cc1ccc(O)c(C)c1NC(=O)c1cnc(Nc2ccn(CC(=O)NC3CCC3)n2)s1 [BAA-191] | > 11 µM |
| Cc1cn(C2COC2)nc1Nc1ncc(C(=O)Nc2c(C)ccc(O)c2C)s1 [BAA-269] | 0.05 to 1 µM |
| Cc1ccc(O)c(C)c1NC(=O)c1cnc(Nc2nn(C)cc2-c2ccccc2)s1 [BAA-373] | > 11 µM |
| Cc1ccc(O)c(C)c1NC(=O)c1cnc(Nc2ccn(CC(=O)N3CCC3)n2)s1 [BAA-175] | > 11 µM |
| Cc1ccc(O)c(C)c1NC(=O)c1cnc(Nc2ccn(CC(=O)N3CCC[C@@H](O)C3)n2)s1 [BAA-161] | > 11 µM |
| Cc1ccc(NC(=O)NC(C)(C)C)nc1Nc1ncc(C(=O)Nc2c(C)ccc(O)c2C)s1.Cl [BAA-336, hydrochloride] | > 11 µM |
| Cc1cn(C2CN(C(=O)OC(C)(C)C)C2)nc1Nc1ncc(C(=O)Nc2c(C)ccc(O)c2C)s1 [BAA-272] | 0.05 to 1 µM |
| Cc1cn(CC(=O)N2CCC2)nc1Nc1ncc(C(=O)Nc2c(C)ccc(O)c2C)s1 [BAA-374] | 1 to 11 µM |
| Cc1ccc(O)c(C)c1NC(=O)c1cnc(Nc2ccn(CCCC(=O)O)n2)s1 [BAA-058] | > 11 µM |
| Cc1ccc(O)c(C)c1NC(=O)c1cnc(Nc2ccn(CC(=O)NC3CCNCC3)n2)s1 [BAA-224] | > 11 µM |
| Cc1ccc(O)c(C)c1NC(=O)c1cnc(Nc2ccn([C@@H]3CCN(C(=O)CC4CCNCC4)C3)n2)s1 [BAA-107] | > 11 µM |
| Cc1ccc(O)c(C)c1NC(=O)c1cnc(Nc2ccn(CC(=O)NCC3CCN(C(=O)OC(C)(C)C)CC3)n2)s1 [BAA-157] | > 11 µM |
| Cc1ccc(O)c(C)c1NC(=O)c1cnc(Nc2nn(C)c3cc(Br)ccc23)s1 [BAA-267] | > 11 µM |
| Cc1ccc(O)c(C)c1NC(=O)c1cnc(Nc2ccn(CC(=O)NC3CCN(C(=O)OC(C)(C)C)CC3)n2)s1 [BAA-152] | 1 to 11 µM |
| CCN(CC)C(=O)Cn1ccc(Nc2ncc(C(=O)Nc3c(C)ccc(O)c3C)s2)n1 [BAA-173] | > 11 µM |
| Cc1ccc(O)c(C)c1NC(=O)c1cnc(NCCCN2CCN(C(=O)OC(C)(C)C)CC2)s1 [BAA-073] | > 11 µM |
| Cc1ccc(O)c(C)c1NC(=O)c1cnc(Nc2nncs2)s1 [BAA-028] | > 11 µM |
| CCN(CC)C(=O)N1CC[C@@H](n2ccc(Nc3ncc(C(=O)Nc4c(C)ccc(O)c4C)s3)n2)C1 [BAA-112] | > 11 µM |
| Cc1ccc(O)c(C)c1NC(=O)c1cnc(Nc2c(C)cnn2Cc2cccc(F)c2)s1 [BAA-375] | > 11 µM |
| Cc1ccc(O)c(C)c1NC(=O)c1cnc(Nc2ccn([C@H]3CCNC3)n2)s1 [BAA-057, (hydrochloride)] | > 11 µM |
| Cc1ccc(NC(=O)C(C)C)nc1Nc1ncc(C(=O)Nc2c(C)ccc(O)c2C)s1.Cl [BAA-332, hydrochloride] | > 11 µM |
| Cc1ccc(O)c(C)c1NC(=O)c1cnc(Nc2ccn(C3COC3)n2)s1 [BAA-007] | 0.05 to 1 µM |
| Cc1ccc(O)c(C)c1NC(=O)c1cnc(Nc2ccn(C(C)C)n2)s1 [BAA-008] | 1 to 11 µM |
| Cc1ccc(O)c(C)c1NC(=O)c1cnc(Nc2ccn([C@@H]3CCN(C(=O)CC(F)(F)F)C3)n2)s1 [BAA-084] | > 11 µM |
| Cc1ccc(O)c(C)c1NC(=O)c1cnc(Nc2ccn([C@@H]3CCN(C(=O)Cc4cccs4)C3)n2)s1 [BAA-098] | > 11 µM |
| Cc1ccc(O)c(C)c1NC(=O)c1cnc(NCc2ccn(C)n2)s1 [BAA-348] | > 11 µM |
